Data origin: patent US20250304644A1

Molecular target: T1, human SNAP-tagged GLP-2R (human, UniProt O95838 1-553, SNAP tag labeled with Tag-Lite SNAP-Lumi4-Tb)
T1 sequence (looked up): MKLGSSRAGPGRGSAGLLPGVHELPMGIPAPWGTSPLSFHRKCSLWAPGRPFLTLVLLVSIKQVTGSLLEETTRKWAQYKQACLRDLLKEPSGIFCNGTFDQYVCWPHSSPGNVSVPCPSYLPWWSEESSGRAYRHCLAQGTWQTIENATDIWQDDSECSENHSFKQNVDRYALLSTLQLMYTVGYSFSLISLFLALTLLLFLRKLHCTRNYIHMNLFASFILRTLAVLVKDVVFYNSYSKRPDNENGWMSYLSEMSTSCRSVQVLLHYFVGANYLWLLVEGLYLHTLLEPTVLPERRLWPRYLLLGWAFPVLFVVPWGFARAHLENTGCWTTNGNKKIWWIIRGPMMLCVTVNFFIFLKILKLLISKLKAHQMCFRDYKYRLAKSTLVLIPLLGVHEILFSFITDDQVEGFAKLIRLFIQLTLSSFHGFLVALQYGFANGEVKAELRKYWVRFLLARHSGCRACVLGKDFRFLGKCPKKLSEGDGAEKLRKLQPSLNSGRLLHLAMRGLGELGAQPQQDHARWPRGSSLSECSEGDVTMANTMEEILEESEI
Test: cell-based or functional assay
*1 amine or outer side, *2 acyl side, *3 side chain or, on linkers, in order; H or OH if unused. Where no end group is shown, it is not given here. Side-chain parts run from the residue outwards. [ ]: non-standard residue; d: D form. The star is where a group is joined. C18 diacid = O=C(O)CCCCCCCCCCCCCCCCC(=O)*; γGlu = O=C(O)[C@H](CCC(=O)[*:2])N[*:1]; AEEA = NCCOCCOCC(=O)O; Aib = CC(C)(N)C(=O)O
Consider the following binders and their measured Relative hGLP-2R internalization (%) readings.
readoutName: Relative hGLP-2R internalization (%)

- HADGTFTSDYSTILDK([AEEA-AEEA-γGlu-C18 diacid])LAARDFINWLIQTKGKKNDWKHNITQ-OH [Compound 21]: 74.6%
- HADGTFTSDYSIILDK([AEEA-AEEA-γGlu-C18 diacid])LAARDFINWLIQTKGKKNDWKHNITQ-OH [Compound 20]: 81%
- HADGTFTSDYST[Aib]LDK([AEEA-AEEA-γGlu-C18 diacid])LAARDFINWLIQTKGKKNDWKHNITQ-OH [Compound 22]: 78.2%
- H[Aib]DGTFISDYSTILDALAARDFINWLIQTKITK([AEEA-AEEA-γGlu-C18 diacid])-OH [Compound 28]: 24.8%
